Test system: Streptococcus sp. 'group A'
Experiment: Streptococcus pyogenes SK(-)GAS viability under kanamycin – luminescence, BacTiterGlo, confirmation, counter-screen for streptokinase expression inhibitor project, dose response (AID 1900)
Format: functional, organism-based
The source made the active and inactive calls.
Property: EC50; scope: individual compounds

compound	EC50
Cc1cc(C)c(-c2noc(C(=O)OC(C)(C)C)c2C(=O)OC(C)(C)C)c(C)c1	10.4 µM (active)
CCc1ccc(N(CC(=O)NC2CC2)S(=O)(=O)c2ccc(C)cc2)cc1	> 150 µM (not active)
C=CCN1C(=O)NC(=O)/C(=C(/C)Nc2ccc(N(CC)CC)cc2)C1=O	5.15 µM (active)
NC(=O)NC(=O)CSc1nc2cc([N+](=O)[O-])ccc2n1-c1cccc(C(F)(F)F)c1	0.301 µM (active)
O=C1NC(=S)N(C2CCCCC2)C(=O)/C1=C/NNC(=O)c1ccccc1	0.519 µM (active)
CCCCNc1c(-c2ccc(-c3ccc(C(C)=O)cc3)c(OC)c2)nc2cnccn12	5.22 µM (active)
O=C(Nc1cccc(NC(=O)c2ccccc2Cl)c1)c1ccc([N+](=O)[O-])o1	4.47 µM (active)
Cc1cccc2sc(NNC(=O)c3ccc(S(=O)(=O)N4CC(C)CC(C)C4)cc3)nc12 (centres undefined)	1.18 µM (active)
CN1c2ccsc2/C(=N/Nc2ccccc2)CS1(=O)=O	2.34 µM (active)

* * *

Property: IC50; scope: individual molecules
Biological target: Rac GTPase-activating protein 1 (Homo sapiens)
Sequence (Q9H0H5 whole entry): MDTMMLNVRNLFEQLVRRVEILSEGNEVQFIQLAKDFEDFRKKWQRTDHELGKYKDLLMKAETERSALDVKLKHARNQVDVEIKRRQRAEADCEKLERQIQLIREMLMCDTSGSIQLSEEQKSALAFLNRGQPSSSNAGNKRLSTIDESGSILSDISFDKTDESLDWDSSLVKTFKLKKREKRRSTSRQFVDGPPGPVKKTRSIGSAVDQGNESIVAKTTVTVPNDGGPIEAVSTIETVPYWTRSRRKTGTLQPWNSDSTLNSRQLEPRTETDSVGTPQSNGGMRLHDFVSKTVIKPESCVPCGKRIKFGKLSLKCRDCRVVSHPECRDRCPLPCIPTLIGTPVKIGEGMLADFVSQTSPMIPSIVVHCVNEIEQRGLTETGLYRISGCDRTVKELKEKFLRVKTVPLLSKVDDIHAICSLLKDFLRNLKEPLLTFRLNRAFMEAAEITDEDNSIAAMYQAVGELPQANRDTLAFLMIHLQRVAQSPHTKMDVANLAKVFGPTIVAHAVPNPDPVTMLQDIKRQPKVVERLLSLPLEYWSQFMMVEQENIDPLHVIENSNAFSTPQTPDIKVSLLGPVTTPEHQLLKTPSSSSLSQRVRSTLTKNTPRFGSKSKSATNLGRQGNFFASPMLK
Test: blockers of MgcRacGAP-driven Rac1 GTP hydrolysis – biochemical, ADP Hunter fluorescence, primary and confirmatory, confirmation (AID 624330)
Format: functional
Active and inactive are the calls of the source.

molecule	IC50
O=C(/C=C/c1ccco1)NC(=S)Nc1ccc(C(=O)O)cc1	147 µM (active)
CCOc1cc(/C=C2\SC(=O)N=C2N)ccc1O	13 µM (active)
CCN1CCN(Cc2ccc(NC(=O)c3ccc(C)c(/C=C/c4cnc(Nc5cc(N6CCNCC6)nc(C)n5)cn4)c3)cc2C(F)(F)F)CC1	41 µM (active)
CC(=O)Nc1ccc(Nc2ccccc2)cc1	75.6 µM (active)
OC(CNCC1COc2ccccc2O1)COCc1cccs1 (stereo unspecified)	76.9 µM (active)
Cc1ccsc1/C=N/Nc1nc2ccccc2[nH]1	71.6 µM (active)
CCN(CC)c1ccc(/N=C/c2ccccc2[N+](=O)[O-])cc1	30.5 µM (active)
Cn1cccc1/C=N/N1CCN(c2ccccn2)CC1	27.6 µM (active)
O=c1c2ccccc2sn1-c1cccc(Cl)c1	33.9 µM (active)
COc1ccc(NCc2cc3ccccc3nc2O)cc1	94.7 µM (active)
CC(OC(=O)CCNC1=NS(=O)(=O)c2ccccc21)C(=O)Nc1ccc(N(C)C)cc1 (stereo unspecified)	54.7 µM (active)
COCCCNCCCCOc1c(Cl)cc(C)cc1Br.O=C(O)C(=O)O	64.1 µM (active)
COCCNC(=O)COc1ccc(Nc2ccccc2)cc1	47.6 µM (active)
Cc1ccc(N2CC(C(=O)Nc3ccc(N(C)C)cc3)CC2=O)cc1C (stereo unspecified)	54.2 µM (active)
N#C/C(=C\c1ccc(N2CCOCC2)o1)c1nc2ccccc2[nH]1	12.2 µM (active)
O=[N+]([O-])C(=C\Nc1ccccc1O)/C=N/c1ccccc1O	58.9 µM (active)
CCN(CC)CCCNc1ccc2ncn3c4ccc(O)cc4c(=O)c1c23	56.4 µM (active)
Cc1ccn2c(NC3CCCC3)c(-c3ccncc3)nc2c1	55.3 µM (active)
Cc1cc(-c2nnc(S)n2/N=C/c2cccs2)[nH]n1	87.8 µM (active)
CC1CCN(CC(=O)Nc2ccc(S(=O)(=O)NC3CC3)cc2)CC1	179 µM (active)
Cc1cccc(N2C(S)=C(C#N)C(=O)NC2c2cccs2)c1 (stereo unspecified)	110 µM (active)
